List of growth values.
tested on: IGROV1 ovarian; experiment: NCI-60 one-dose screen, 48 h (100 = growth as untreated, 0 = no growth, -100 = all killed); details: 10 µM unless noted
About 83,000 compounds went through this panel and 20% of them were active in at least one assay; those are over-represented in the sample as a whole.
Expressed in %, but write only the number.

Known growth results, listed for orientation:
[
  {
    "CHEMICAL_STRUCTURE": "COc1ccc(NC(=O)Nc2ccc(OCCCCCC(=O)NO)cc2)cc1",
    "ENDPOINT": "growth",
    "UNIT_TEXT": "%",
    "OBS_VALUE": 115
  },
  {
    "CHEMICAL_STRUCTURE": "O=C(CSc1nnc(-c2cc(-c3ccccc3)nc3ccccc23)n1-c1ccccc1)Nc1ccc(C(=O)/C=C/c2ccc(Cl)cc2)cc1",
    "ENDPOINT": "growth",
    "UNIT_TEXT": "%",
    "OBS_VALUE": 108
  },
  {
    "CHEMICAL_STRUCTURE": "CN(C)c1ccc(-c2ccc3c(c2)c(-c2ccccc2)nc(=O)n3C)cn1",
    "ENDPOINT": "growth",
    "UNIT_TEXT": "%",
    "OBS_VALUE": 49.1
  },
  {
    "CHEMICAL_STRUCTURE": "COc1cnc2c(c1)C(=O)c1c-2n(CCCCl)c(=O)c2ccncc12",
    "ENDPOINT": "growth",
    "UNIT_TEXT": "%",
    "OBS_VALUE": 55.5
  }
]

Note: attention shifts to another entry.
Summary: CSC(SC)=C(C#N)c1nc2ccccc2s1 , IGROV1 ovarian, growth = 49.3

====

test system: NCI-H226 lung; test: NCI-60 one-dose screen, 48 h; conditions: 10 µM unless noted
This is part of a sample that, as a whole, favours compounds with a hit. Of some 83,000 tested, about 20% had one in any assay. Activity calls are given as the source filed them. Rule for the calls: active = growth percent below 10; inactive = the rest.
Output constraint: value belongs to active, inactive

[
  {
    "COMPOUND": "C=C1C(=O)O[C@H]2[C@H]1CC/C(COC(=O)/C=C\\C(=O)NCc1ccc(Cn3c(=O)sn(CCCl)c3=O)cc1)=C\\CC[C@@]1(C)O[C@@H]21",
    "CATEGORY_LABEL": "inactive"
  },
  {
    "COMPOUND": "C=C1C(=O)O[C@H]2[C@H]1CC/C(COC(=O)CSCSCC(=O)OC/C1=C/CC[C@@]3(C)O[C@H]3[C@H]3OC(=O)C(=C)[C@@H]3CC1)=C\\CC[C@@]1(C)O[C@@H]21",
    "CATEGORY_LABEL": "active"
  },
  {
    "COMPOUND": "C=C1C(=O)O[C@H]2[C@H]1CC/C(COC(=O)NCc1ccc(Cn3c(=O)sn(-c4ccc(C#N)cc4)c3=O)cc1)=C\\CC[C@@]1(C)O[C@@H]21",
    "CATEGORY_LABEL": "inactive"
  },
  {
    "COMPOUND": "Cc1nc2c(=O)nc3s/c(=C\\c4ccco4)c(=O)n3c2nc1C",
    "CATEGORY_LABEL": "inactive"
  },
  {
    "COMPOUND": "Nc1nc(N)c(N=Nc2ccccc2)c(-c2ccccc2)n1",
    "CATEGORY_LABEL": "inactive"
  }
]

Okay, now this compound:
Fill in: this test's call for CC1=C(CCC(C)NCc2ccc(OCCCN3CCCCC3)cc2)C(C)(C)CCC1 (stereo not drawn) is ___
active
